method.summary: gradient 5% acetonitrile 3 min, to 50% in 2 min, to 85% in 15 min, held 3 min, 100 µL/min
measurement.conditions: column: Zorbax Extend-C18 2.1 x 50 mm; eluents: water / acetonitrile, 0.1% formic acid
value.kind: RP-LC retention time (s)
Give the value in s but do not write s after it.

Example entries and their recorded answers appear below.
molecule	value.kind	quantity.unit	recorded.measurement
CC(C)N1C(=O)Cc2ccccc2C1C(=O)NCc1ccccc1Br (stereo not drawn)	RP-LC retention time	s	825
O=C(Nc1ccccc1C(F)(F)F)N1CCCC(Cn2cnc3cccnc32)C1 (stereo not drawn)	RP-LC retention time	s	680
Cc1ccc(-c2nc3cnccn3c2NCCC(=O)NC(C)c2cccnc2)cc1 (stereo not drawn)	RP-LC retention time	s	569
COc1ccc(Cn2nnc(C(=O)NCC3CCCO3)c2-n2cccc2)cc1 (stereo not drawn)	RP-LC retention time	s	832
COc1cccc(NC(=O)C2CC(=O)N(c3ccc4c(c3)CCN4C(=O)C3CC3)C2)c1 (stereo not drawn)	RP-LC retention time	s	655

Data request: Specify measured RP-LC retention time for `COc1cccc(-c2csc(-c3nnn(-c4ccc(C)cc4)c3N)n2)c1` .
Data returned: 1140

Data request: Consider the molecule CC12C(=O)N(c3nccs3)C(=O)C1(C)C1CCC2O1 (stereo not drawn) . State its measured RP-LC retention time.
Data returned: 741

Data request: Identify measured RP-LC retention time associated with `Cn1c(=O)c(=O)n(C)c2cc(N3CCCCC3)c(NC(=O)c3ccco3)cc21`
Data returned: 840

Data request: Look up and report measured RP-LC retention time for this entry: CC(CNC(=O)CC1CCN(S(=O)(=O)c2ccccc2)CC1)c1ccccc1 (stereo not drawn)
Data returned: 866

Data request: For the molecule `O=C(Nc1cccc(C(F)(F)F)c1)N1CCN(c2cnn3c(C4CC4)nnc3c2)CC1` , report RP-LC retention time.
Data returned: 629

Data request: Query RP-LC retention time for `Nc1ccc(-c2ccc3ccccc3n2)cc1`
Data returned: 619

Data request: Identify the reported RP-LC retention time for the following entry. CC(=O)c1ccc(N2CCN(C(=O)C3Oc4ccccc4NC3=O)CC2)cc1 (stereo not drawn)
Data returned: 723

Data request: Quote RP-LC retention time reported for COc1ccc(Cl)cc1NC(=O)C1CCN(S(C)(=O)=O)c2ccccc2O1 (stereo not drawn) please.
Data returned: 1030

Data request: Fill in RP-LC retention time for record `Cc1ccc(-c2ccc3nn(Cc4nc(-c5ccc(F)c(Br)c5)no4)c(=O)n3n2)cc1`
Data returned: 1090

Data request: Complete the entry with RP-LC retention time for CC(=O)c1ccc(NC(=O)C(C)Oc2cc(-c3ccccc3)c3c(C)nn(C)c3n2)cc1 (stereo not drawn)
Data returned: 990

Data request: Look up RP-LC retention time of `CCOC(=O)c1sc(NC(=O)C(C)(C)C)nc1-c1ccccc1` and report it.
Data returned: 592

Data request: Name the recorded RP-LC retention time of the molecule listed here: `COc1ccccc1NC(=O)N1CCC2(CC1)NC(=O)c1cc(Cl)ccc1N2C`
Data returned: 806

Data request: Please give measured RP-LC retention time of the following entry: `Cc1ccccc1N1CCN(S(=O)(=O)c2cc3n(c2)CCCNC3=O)CC1`
Data returned: 788
